Here, each record is paired with measured pIC50 data.
assayed_target: truncated His-MBP-Tev-KLHDC2 (residues 1-363) (Homo sapiens, UniProt Q9Y2U9)
Construct: truncated His -MBP-Tev-KLHDC2 (residues 1-363) purified from E. coli; made in house; host or cells: E. coli
Sequence (Q9Y2U9 1-363): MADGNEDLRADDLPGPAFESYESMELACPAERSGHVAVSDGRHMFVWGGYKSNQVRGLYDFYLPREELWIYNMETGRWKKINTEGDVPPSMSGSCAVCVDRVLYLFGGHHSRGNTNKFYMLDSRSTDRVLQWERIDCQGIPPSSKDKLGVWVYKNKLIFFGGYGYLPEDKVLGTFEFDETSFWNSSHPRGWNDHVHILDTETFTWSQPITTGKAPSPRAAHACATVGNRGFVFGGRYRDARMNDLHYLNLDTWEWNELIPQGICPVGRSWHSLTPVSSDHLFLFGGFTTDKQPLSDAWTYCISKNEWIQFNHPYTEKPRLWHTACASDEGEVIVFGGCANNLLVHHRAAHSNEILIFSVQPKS
method: KLHDC2 HTRF binding assay
condition_parameters: 1 nM KLHDC2 (residues 1-363), fluorescein-labeled diglycine peptide probe
pIC50: −log10 of the molar value.

// below: answered molecules
- Cc1ccc(C)c(-c2cn(CC(=O)O)c(=O)cc2C)c1: < 5.30
- CC(C)(C)OC(=O)NCCCCCCc1ccncc1-c1cccc(C(=O)Nc2ccc(=O)n(CC(=O)O)c2)c1: 6.30 to 7.30
- CNc1cncc(N2CCC[C@H](C(=O)Nc3ccc(=O)n(CC(=O)O)c3)C2)c1: > 7.30
- CCc1cc(=O)n(CC(=O)O)cc1NC(=O)c1cccc(-c2cccnc2)c1: 6.30 to 7.30

O=C(O)Cn1cc(N2CC[C@]3(CCCN(c4cccnc4)C3)C2=O)ccc1=O has a reported pIC50 of 6.30 to 7.30

Cn1ccc2c(C(=O)Nc3ccc(=O)n(CC(=O)O)c3)cccc21 has a reported pIC50 of 5.30 to 6.30

Data provenance: patent US20250214969A1
